Molecular target: REV-ERBα LBD (Homo sapiens, UniProt P20393, DEL324-422)
Sequence (P20393 with tags, fused parts or gaps DEL324-422): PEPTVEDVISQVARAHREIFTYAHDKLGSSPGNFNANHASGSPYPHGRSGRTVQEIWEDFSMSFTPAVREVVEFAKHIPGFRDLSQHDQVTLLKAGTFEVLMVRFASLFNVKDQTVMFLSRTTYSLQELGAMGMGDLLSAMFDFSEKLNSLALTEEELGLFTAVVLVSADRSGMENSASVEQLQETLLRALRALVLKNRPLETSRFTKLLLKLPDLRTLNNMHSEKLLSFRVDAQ
Sequence (Q9Y618 2335-2356 partner limits assumed): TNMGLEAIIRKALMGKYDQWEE
Assay: biochemical
Details: FRET assay; 6xHistag-REV-ERBα LBD with FITC-labeled SMRT corepressor peptide; read-out: REVERBα (Agonism of REV-ERBα, EC50)
Here, each record is paired with measured EC50 data.
Property measured: EC50

>  <Compound>
CC(C)(C)Cn1cc([C@H](NS(=O)(=O)C2CC2)C(F)F)c2ccc(-c3c(C#N)ccnc3C(F)(F)F)cc21

>  <Measured value>
0.1 to 1 µM

$$$$
>  <Compound>
CC(C)(C)Cn1cc([C@H](NS(=O)(=O)C2CC2)C(F)F)c2ccc(-c3ncc(Cl)cc3F)cc21

>  <Measured value>
< 0.1 µM

$$$$
>  <Compound>
CC(C)(C)Cn1cc([C@H](NS(=O)(=O)C2CC2)C(F)F)c2cc(F)c(-c3ncc(F)cc3Cl)cc21

>  <Measured value>
< 0.1 µM

$$$$
>  <Compound>
CC(NS(=O)(=O)C1CC1)c1cn(CC(C)(C)C)c2cc(-c3cccnc3C(F)(F)F)c(F)cc12 (single isomer, unassigned) [Compound 29]

>  <Measured value>
0.1 to 1 µM

$$$$
>  <Compound>
CC(C)(C)Cn1cc([C@H](NS(=O)(=O)C2CC2)C(F)F)c2ccc(-c3ncc(F)cc3C#N)cc21

>  <Measured value>
< 0.1 µM

$$$$
>  <Compound>
CC(C)(C)Cn1cc([C@H](NS(=O)(=O)C2CC2)C(F)F)c2cc(F)c(-c3cnccc3C(F)(F)F)cc21

>  <Measured value>
< 0.1 µM

$$$$
>  <Compound>
CC(C)(C)Cn1cc([C@H](NS(=O)(=O)C2CC2)C(F)F)c2cc(F)c(-c3ccncc3C(F)(F)F)cc21

>  <Measured value>
< 0.1 µM

$$$$
